Just for reference, ChEMBL document CHEMBL4390694 is where these values come from.

Experiment: Elimination half life in ICR mouse at 25 mg/kg, po administered as single dose and measured up to 24 hrs post dose
Assay type: ADME, organism-based
Conditions: in vivo, read-out: beta t1/2 (converted)
endpoint label: half-life (min)
Report the value in min with no unit label.

input smiles	unit abbreviation	half-life
CNC(=O)c1c(-c2ccc(O)cc2)oc2ccc(O)c(CN3CCCCC3)c12	min	515

Field: next compound
Return reported half-life; argument: CCOC(=O)c1c(-c2ccc(OC)cc2)oc2ccc(OCCCCCCN3C(=O)C(=O)c4cc(F)ccc43)cc12
149

---

Assay: Selectivity index, ratio of CC50 for cytotoxicity against African green monkey Vero cells to MIC for antimycobacterial activity against drug-susceptible Mycobacterium tuberculosis H37Rv
Assay type: toxicity, cell-based
Settings: read-out: Selectivity Index
In this section, each of the compounds is paired with its reported selectivity ratio.
Returns: the value as a bare number; no unit string appended.

Answered cases to consult:
input smiles	selectivity ratio
CCOC(=O)c1c(-c2ccc(F)cc2)oc2ccc(OCCCN3C(=O)C(=O)c4cc(F)ccc43)cc12	512
CCOC(=O)c1c(-c2ccc(F)cc2)oc2ccc(OCCCN3C(=O)C(=O)c4ccccc43)cc12	128
CCOC(=O)c1c(-c2ccc(OC)cc2)oc2ccc(OCCCCCN3C(=O)C(=O)c4cc(F)ccc43)cc12	512

Return reported selectivity ratio; argument: CCOC(=O)c1c(-c2ccccc2)oc2ccc(OCCCN3C(=O)C(=O)c4cc(OC)ccc43)cc12
1024

Return reported selectivity ratio; argument: CCOC(=O)c1c(-c2ccc(OC)cc2)oc2ccc(OCCCN3C(=O)C(=O)c4cc(F)ccc43)cc12
512

Return reported selectivity ratio; argument: CCOC(=O)c1c(-c2ccc(F)cc2)oc2ccc(OCCCN3C(=O)C(=O)c4cc(OC)ccc43)cc12
128

Return reported selectivity ratio; argument: CCOC(=O)c1c(-c2ccc(F)cc2)oc2ccc(OCCCCCN3C(=O)C(=O)c4cc(OC)ccc43)cc12
256

---

Test: AUC (0 to infinity) in ICR mouse at 25 mg/kg, po administered as single dose and measured up to 24 hrs post dose
Type: ADME, organism-based
Design: dose 25 mg/kg, time infinity, route oral
Settings: in vivo
In this section, each of the compounds is paired with its reported AUC(0-inf).
Report the value in ng·h/mL with no unit label.

input smiles	unit abbreviation	AUC(0-inf)
CNC(=O)c1c(-c2ccc(O)cc2)oc2ccc(O)c(CN3CCCCC3)c12	ng·h/mL	31800

Field: next compound
Return reported AUC(0-inf); argument: CCOC(=O)c1c(-c2ccc(OC)cc2)oc2ccc(OCCCCCCN3C(=O)C(=O)c4cc(F)ccc43)cc12
3680

---

In this section, each of the molecules is paired with its reported CC50 at 72 h.
Test: Cytotoxicity against African green monkey Vero cells assessed as decrease in cell viability after 72 hrs by MTT assay
Assay type: cell-based
Conditions: chlorocebus sabaeus
Report the value in µM with no unit label.

Answered cases to consult:
input smiles	CC50 at 72 h / µM
CCOC(=O)c1c(-c2ccc(F)cc2)oc2ccc(OCCCN3C(=O)C(=O)c4cc(F)ccc43)cc12	512
CCOC(=O)c1c(-c2ccc(OC)cc2)oc2ccc(OCCCCCCN3C(=O)C(=O)c4ccccc43)cc12	256
CCOC(=O)c1c(-c2ccc(OC)cc2)oc2ccc(OCCCN3C(=O)C(=O)c4ccccc43)cc12	64
CCOC(=O)c1c(-c2ccc(F)cc2)oc2ccc(OCCCN3C(=O)C(=O)c4cc(OC)ccc43)cc12	128
CCOC(=O)c1c(-c2ccccc2)oc2ccc(OCCCN3C(=O)C(=O)c4cc(OC)ccc43)cc12	256
CCOC(=O)c1c(-c2ccc(F)cc2)oc2ccc(OCCCCCN3C(=O)C(=O)c4cc(OC)ccc43)cc12	128

Return reported CC50 at 72 h; argument: CCOC(=O)c1c(-c2ccc(OC)cc2)oc2ccc(OCCCN3C(=O)C(=O)c4cc(F)ccc43)cc12
256

Return reported CC50 at 72 h; argument: CCOC(=O)c1c(-c2ccc(OC)cc2)oc2ccc(OCCCCCCN3C(=O)C(=O)c4cc(F)ccc43)cc12
128

Return reported CC50 at 72 h; argument: CCOC(=O)c1c(-c2ccc(OC)cc2)oc2ccc(OCCCCN3C(=O)C(=O)c4cc(OC)ccc43)cc12
64
